Origin of the recorded values: PubChem BioAssay AID463173

System: DeltatarO mutant
run-description: S. aureus survival, RN4220 and DeltatarO strains – OD600, teichoic acid synthesis inhibitors, primary screen (AID 463173)
test-parameters: S. aureus RN4220 wild type/DeltatarO growth, OD600, 18 h, active compounds read low, screened at 18.75 µg/mL (by protocol)
About 4,300 (8.3%) of roughly 52,000 compounds were called active. This is one part of a sample in which actives are shown more often than they occur.
measure-name: survival (%)
Respond numerically; units are % and should not be typed.

Cc1cccc(NC(=O)NC2COc3ccccc3C2)c1C (centres undefined): 69
Cc1cccc(NC(=O)Cn2c(=O)c3cccn3c3ccccc32)c1C: 43
CCC(=O)Nc1cccc(OCc2cc(=O)n3cc(C)ccc3n2)c1: 55
COc1cc(NC(=O)CCn2c(=O)oc3ccccc32)cc(OC)c1OC: 62
C=Cc1ccc(Cn2c(C(=O)OC)cc3sc(C)cc32)cc1: 27
CCC(C)NC(=O)CCCc1nnc2n(CC(C)C)c(=O)c3sccc3n12 (centres undefined): 94

Problem: Need survival, item Cc1nc(-c2cccc(S(=O)(=O)N3CCC(C(=O)NCc4ccccc4)CC3)c2)no1
Result: 109

Problem: Param item = Cc1cc(C)cc(NC(=O)c2cnn(-c3ccc(C)c(C)c3)c2C2CCNCC2)c1 ; retrieve measured survival.
Result: 78

Problem: Sample Cc1nn(CC(=O)Nc2cc(F)ccc2F)c(=O)c2cccn12 — what was its survival?
Result: 94

Problem: Param item = Cc1ccc2nc(COc3cccc(NC(=O)Nc4ccc(C)c(Cl)c4)c3)cc(=O)n2c1 ; retrieve measured survival.
Result: 25

Problem: Entry O=C(CN(c1ccc2c(c1)OCCO2)S(=O)(=O)c1ccccc1)NCc1ccco1 has what survival?
Result: 85

Problem: Name the recorded survival for COc1cccc(CNC(=O)Cn2c(=O)ccc3cc(S(=O)(=O)N4CCC(C)CC4)ccc32)c1 .
Result: 99

* * *

System: DeltatarO mutant
run-description: S. aureus survival, RN4220 and DeltatarO strains – OD600, teichoic acid synthesis inhibitors, primary screen (AID 463173)
test-parameters: S. aureus RN4220 wild type/DeltatarO growth, OD600, 18 h, active compounds read low, screened at 18.75 µg/mL (by protocol)
The campaign covered roughly 52,000 compounds. About 4,300 (8.3%) were called active. For the sample, actives were picked, then their nearest neighbours and some compounds at random.
measure-name: survival (%)
Write down the numeric answer in % and omit the unit.

Solved cases (4 shown):
Cc1cc(S(=O)(=O)Nc2ccc3oc4c(c3c2)CCCC4)ccc1Cl: 41
COc1ccc(NS(=O)(=O)c2ccc3[nH]c4c(c3c2)CCCCCC4)cc1: -2
Cc1ccc(S(=O)(=O)Nc2cc(Cl)c3oc4c(c3c2)CCCC4)cc1: 117
COc1ccc(-c2noc(CSc3nc4ccccc4[nH]3)n2)cc1OC: 62

Kindly review the next molecule as well.
Problem: Entry CCC(C)NC(=O)CSc1nc2c(sc3ccccc32)c(=O)n1CCc1ccc(OC)c(OC)c1 (stereo not drawn) : reported survival = ?
Result: 66

* * *

Tested on: DeltatarO mutant
run-description: S. aureus survival, RN4220 and DeltatarO strains – OD600, teichoic acid synthesis inhibitors, primary screen (AID 463173)
test-parameters: S. aureus RN4220 wild type/DeltatarO growth, OD600, 18 h, active compounds read low, screened at 18.75 µg/mL (by protocol)
The whole screen tested about 52,000 compounds, of which about 4,300 (8.3%) were called active. This is one part of a sample in which actives are shown more often than they occur.
Decide using survival alone. Strictly below 80%: condition met. Equal to or above 80%: condition not met.

CCOc1ccc(C2c3[nH]c4ccccc4c3CCN2C(=O)CCc2ccccc2)cc1 (stereo unspecified): condition not met

Problem: Does Cc1cccc2nc(-c3cccnc3)c(Nc3ccc(C(C)C)cc3)n12 have survival strictly under 80%?
Result: condition met

Problem: Field: below-cutoff. Rule: recorded survival strictly less than 80%. Subject: CCN(C(=O)c1cc2c(s1)-c1ccccc1OC2)c1cccc(C(F)(F)F)c1
Result: condition met

Problem: Input CC(C)N(Cc1ccccc1)C(=O)CCS(=O)(=O)c1cc2c(cc1Cl)NC(=O)CO2 ; condition: survival strictly below 80%. Does it hold?
Result: condition not met

Problem: Bench note: check whether COc1ccccc1N1CCN(S(=O)(=O)c2ccc(S(=O)(=O)NC3CCCC3)cc2)CC1 shows survival below 80%
Result: condition met

Problem: I wonder whether O=S(=O)(NC1CCCC1)c1ccc(Br)cc1 has survival below 80%. Can you tell?
Result: condition not met

Problem: # strict comparison: is reported survival < 80%? input = CC1CCN(S(=O)(=O)c2cc(C(=O)N3CCN(c4ccccc4F)CC3)n(C)c2)CC1
Result: condition met

Problem: Is 80% strictly greater than the molecule's reported survival? molecule: CCOc1ccccc1CNC(=O)CCn1c(=O)c2cccn2c2ccc(F)cc21
Result: condition met

Problem: is_below(survival, 80%) for CCOc1ccc(CCNC(=O)c2cnc3c(-c4ccc(F)cc4)c(C)nn3c2C)cc1OCC ?
Result: condition not met

Problem: API: query returns whether the molecule falls strictly under 80% in survival. Query: CCn1c2ccccc2c2cc(CN3CCN(Cc4ccccc4F)CC3)ccc21
Result: condition met

Problem: Is it true that survival reported for Cn1cnc(S(=O)(=O)N2CCC(C(=O)N3CCN(c4ccc(Cl)cc4)CC3)CC2)c1 is less than 80%?
Result: condition met

Problem: Item Cc1ccc(CNC(=O)c2cc3c(s2)-c2ccccc2SC3)cc1 : survival beneath 80%, strictly?
Result: condition not met

Problem: Does the reported survival of O=c1c2ccccc2n(Cc2ccccc2F)c(=O)n1-c1cccc(F)c1 stay below 80%?
Result: condition met

Problem: hey, is survival for Cc1cccc(N2CCN(C(=O)c3cc(S(=O)(=O)N4CCC(C)CC4)cn3C)CC2)c1C lower than 80% or not?
Result: condition met

Problem: Consider CCOc1ccc(CNC(=O)CCCn2c(=O)c3cccn3c3cccnc32)cc1 . Does its survival lie strictly below 80%?
Result: condition not met

Problem: Hi there! Is survival for CN(Cc1ccccc1)C(=O)c1cc2c(s1)-c1ccc(Cl)cc1SC2 below 80%, do you know?
Result: condition not met

Problem: Hi there! Is survival for CCOc1ccccc1N(CC)C(=O)Cn1ncc2c1-c1ccccc1OC2 below 80%, do you know?
Result: condition met

* * *

System: DeltatarO mutant
run-description: S. aureus survival, RN4220 and DeltatarO strains – OD600, teichoic acid synthesis inhibitors, primary screen (AID 463173)
test-parameters: S. aureus RN4220 wild type/DeltatarO growth, OD600, 18 h, screened at 18.75 µg/mL (by protocol)
The campaign covered roughly 52,000 compounds. About 4,300 (8.3%) were called active. Cut-off read from the data, not from the text of the source: active = survival mostly below about 52% (no sharp cut-off); inactive = mostly above about 56%. Shown is part of a subset that was picked to be rich in actives.
Your response should consist of one outcome taken from active, inactive

COc1ccc(-c2cc(C(F)(F)F)nc(S(C)(=O)=O)n2)cc1: inactive

Problem: I would be grateful if you could indicate the recorded call for Cc1ccc(NC(=O)CCN2C(=O)c3ccccc3Sc3ncccc32)cc1 .
Result: inactive

Problem: Just curious, what result did COc1ccccc1Cc1nc2ccccc2nc1SCC(=O)N(C)c1ccc(F)cc1 get here?
Result: inactive

Problem: Outcome? Cc1ccc(-n2nc3c(=O)n(CCCC(=O)NC(C)c4ccccc4)nc(C)c3c2C)cc1 (centres undefined)
Result: inactive

Problem: In this assay, the call recorded for CCC1CN(C(=O)N2CCC(C(=O)Nc3cc(C)ccc3C)CC2)c2ccccc2O1 (centres undefined) was what?
Result: inactive

Problem: I would be grateful if you could indicate the recorded call for O=C(O)CSc1c2c(nc3cc(C(=O)Nc4ccc(F)c(Cl)c4)ccc13)CCC2 .
Result: inactive

* * *

System: DeltatarO mutant
run-description: S. aureus survival, RN4220 and DeltatarO strains – OD600, teichoic acid synthesis inhibitors, primary screen (AID 463173)
test-parameters: S. aureus RN4220 wild type/DeltatarO growth, OD600, 18 h, active compounds read low, screened at 18.75 µg/mL (by protocol)
In all, about 52,000 compounds went through this assay and about 4,300 (8.3%) were called active. The entries come from a sample that favours actives as a whole.
measure-name: survival (%)
Number only, in %; omit the unit.

COc1ccc(CNC(=O)C2CCN(S(=O)(=O)c3cccc(-c4noc(C)n4)c3)CC2)cc1: 92
COc1ccccc1CC(NC(C)=O)C(=O)N1CCN(C(=O)c2cccs2)CC1 (stereo not drawn): 97

Problem: Look at this compound and give its reported survival. CCCCCn1c(=O)[nH]c2cc(C(=O)N3CCN(c4ccccc4)CC3)ccc2c1=O
Result: 68

* * *

Tested on: DeltatarO mutant
run-description: S. aureus survival, RN4220 and DeltatarO strains – OD600, teichoic acid synthesis inhibitors, primary screen (AID 463173)
test-parameters: S. aureus RN4220 wild type/DeltatarO growth, OD600, 18 h, active compounds read low, screened at 18.75 µg/mL (by protocol)
Hit rate of the full screen: of about 52,000 compounds, about 4,300 (8.3%) were called active. The sample as a whole holds a higher share of actives than the screen did.
# survival per entry
Only the number, expressed in %, is required.

Cc1nn(C)c2c1c(-c1ccccc1)cc(=O)n2Cc1ccccc1F: 109
Clc1ccc(CCNC(c2ccc(Cl)cc2)c2nnc(-c3ccccc3)o2)cc1 (stereo not drawn): 98
CCOC(=O)c1cc(-c2ccccc2)n(-c2cccc(C(=O)Nc3cccc(SC)c3)c2)c1C: 32
CC(=O)Nc1ccc2nc(SCCOc3ccccc3Cl)sc2c1: 3

Problem: Look up survival: COC(=O)c1cnn2c(C(F)(F)F)cc(-c3ccccc3)nc12
Result: 68

Problem: Look up survival: Cc1ccc(NC(c2cccc(Cl)c2)c2nnc(-c3ccccc3)o2)cc1F (stereo not drawn)
Result: 99
